Source: ChEMBL document CHEMBL5614428

Test system: Staphylococcus aureus
Assay: Antibacterial activity against methicillin-resistant Staphylococcus aureus XJ036 assessed as inhibition of bacterial growth incubated for 18 hrs by two fold serial dilution assay
Assay type: functional
Assign MIC to each entry below.
Remember to follow the number with its unit.

Previously resolved entries follow.
CNC(=O)CC[C@](C)(O)[C@H]1CC[C@]2(C)[C@@H]1[C@H](O)C[C@@H]1[C@@]3(C)Cc4nc5ccccc5nc4C(C)(C)[C@@H]3CC[C@]12C	8 mg/L
CC1(C)c2nc3ccccc3nc2C[C@]2(C)[C@H]3C[C@@H](O)[C@@H]4[C@@H]([C@@](C)(O)CCC(=O)Nc5cccnc5)CC[C@@]4(C)[C@]3(C)CC[C@@H]12	4 mg/L
C[C@H]1COc2c(N3CCN(C)CC3)c(F)cc3c(=O)c(C(=O)O)cn1c23 [LEVOFLOXACIN ANHYDROUS]	32 mg/L
CC1(C)c2nc3ccccc3nc2C[C@]2(C)[C@H]3C[C@@H](O)[C@@H]4[C@@H]([C@@](C)(O)CCC(=O)Nc5cnccn5)CC[C@@]4(C)[C@]3(C)CC[C@@H]12	4 mg/L
CC1(C)c2nc3ccccc3nc2C[C@]2(C)[C@H]3C[C@@H](O)[C@@H]4[C@@H]([C@@](C)(O)CCC(=O)Nc5ncc[nH]5)CC[C@@]4(C)[C@]3(C)CC[C@@H]12	4 mg/L

Attention now shifts to the item below.
What does the record list as MIC for CC1(C)S[C@@H]2[C@H](NC(=O)[C@H](N)c3ccccc3)C(=O)N2[C@H]1C(=O)O [AMPICILLIN] ?
8 mg/L

---

Assign MIC to each entry below.
Test system: Staphylococcus aureus
Assay: Antibacterial activity against methicillin-resistant Staphylococcus aureus XJ017 assessed as inhibition of bacterial growth incubated for 18 hrs by two fold serial dilution assay
Assay type: functional
Answers are plain numbers, in µg/mL.

Previously resolved entries follow.
CC1(C)c2nc3ccccc3nc2C[C@]2(C)[C@H]3C[C@@H](O)[C@@H]4[C@@H]([C@@](C)(O)CCC(N)=O)CC[C@@]4(C)[C@]3(C)CC[C@@H]12	4
CNC(=O)CC[C@](C)(O)[C@H]1CC[C@]2(C)[C@@H]1[C@H](O)C[C@@H]1[C@@]3(C)Cc4nc5ccccc5nc4C(C)(C)[C@@H]3CC[C@]12C	16
CC1(C)c2nc3ccccc3nc2C[C@]2(C)[C@H]3C[C@@H](O)[C@@H]4[C@@H]([C@@](C)(O)CCC(=O)Nc5ncc[nH]5)CC[C@@]4(C)[C@]3(C)CC[C@@H]12	2
C[C@H]1COc2c(N3CCN(C)CC3)c(F)cc3c(=O)c(C(=O)O)cn1c23 [LEVOFLOXACIN ANHYDROUS]	64
CCNC(=O)CC[C@](C)(O)[C@H]1CC[C@]2(C)[C@@H]1[C@H](O)C[C@@H]1[C@@]3(C)Cc4nc5ccccc5nc4C(C)(C)[C@@H]3CC[C@]12C	8
CC1(C)c2nc3ccccc3nc2C[C@]2(C)[C@H]3C[C@@H](O)[C@@H]4[C@@H]([C@@](C)(O)CCC(=O)Nc5cccnc5)CC[C@@]4(C)[C@]3(C)CC[C@@H]12	16

Can you give me MIC for all of these, one by one?
1. CC1(C)S[C@@H]2[C@H](NC(=O)[C@H](N)c3ccccc3)C(=O)N2[C@H]1C(=O)O
2. CC1(C)c2nc3ccccc3nc2C[C@]2(C)[C@H]3C[C@@H](O)[C@@H]4[C@@H]([C@@](C)(O)CCC(=O)Nc5nccs5)CC[C@@]4(C)[C@]3(C)CC[C@@H]12
3. CC1(C)c2nc3ccccc3nc2C[C@]2(C)[C@H]3C[C@@H](O)[C@@H]4[C@@H]([C@@](C)(O)CCC(=O)Nc5cnccn5)CC[C@@]4(C)[C@]3(C)CC[C@@H]12

[32, 0.5, 16]
